# assayInfo: Bronchoalveolar lavage (BAL) procedure: compound levels after intratracheal administration
# Format: in vivo
# conditionSummary: bronchoalveolar lavage fluid (BAL), other: intratracheal, 0.1 mg/kg, rat, 0.1 mg/mL solution in 5% dextrose, 1 mL/Kg, BAL 6 hours after administration, LC/MS/MS
testReadout: concentration at 6 h (µg/mL)

The cases that follow already have their concentration at 6 h on record.
{"compound": "CCn1c(CNC(=O)c2nc3cc[nH]c3nc2N)[n+](CC)c2ccc(C(=O)NCCN(C[C@H](O)[C@@H](O)[C@H](O)[C@H](O)CO)C[C@H](O)[C@@H](O)[C@H](O)[C@H](O)CO)cc21 [Example 58]", "concentration at 6 h [µg/mL]": 0.256}
{"compound": "CCn1c(CNC(=O)c2nc3cc[nH]c3nc2N)[n+](CC)c2ccc(C(=O)N3CCC(CN(C[C@H](O)[C@@H](O)[C@H](O)[C@H](O)CO)C[C@H](O)[C@@H](O)[C@H](O)[C@H](O)CO)CC3)cc21 [Example 52]", "concentration at 6 h [µg/mL]": 0.302}
{"compound": "CCn1c(CNC(=O)c2nc3cc[nH]c3nc2N)[n+](CC)c2ccc(C(=O)NCCCCc3ccc(CCC(NCCCN(C[C@H](O)[C@@H](O)[C@H](O)[C@H](O)CO)C[C@H](O)[C@@H](O)[C@H](O)[C@H](O)CO)C(N)=O)cc3)cc21 (some centres unmarked) [Example 62]", "concentration at 6 h [µg/mL]": 0.14}
{"compound": "CCn1c(CNC(=O)c2nc3cc[nH]c3nc2N)[n+](CC)c2ccc(C(=O)NCCOCCOCCOCCN(C[C@H](O)[C@@H](O)[C@H](O)[C@H](O)CO)C[C@H](O)[C@@H](O)[C@H](O)[C@H](O)CO)cc21 [Example 59]", "concentration at 6 h [µg/mL]": 0.197}
{"compound": "CCn1c(CNC(=O)c2nc3cc[nH]c3nc2N)[n+](CC)c2ccc(C(=O)NCC[C@H](NCCCN(C[C@H](O)[C@@H](O)[C@H](O)[C@H](O)CO)C[C@H](O)[C@@H](O)[C@H](O)[C@H](O)CO)C(N)=O)cc21 [Example 61]", "concentration at 6 h [µg/mL]": 0.167}
{"compound": "CCn1c(CNC(=O)c2nc3cc[nH]c3nc2N)[n+](CC)c2ccc(C(=O)N3CC[C@H](N(C[C@H](O)[C@@H](O)[C@H](O)[C@H](O)CO)C[C@H](O)[C@@H](O)[C@H](O)[C@H](O)CO)C3)cc21 [Example 54]", "concentration at 6 h [µg/mL]": 0.139}

(1) CCn1c(CNC(=O)c2nc3cc[nH]c3nc2N)[n+](CC)c2ccc(C(=O)N3CCC(N(C[C@H](O)[C@@H](O)[C@H](O)[C@H](O)CO)C[C@H](O)[C@@H](O)[C@H](O)[C@H](O)CO)CC3)cc21 [Example 50]
(2) CCn1c(CNC(=O)c2nc3cc[nH]c3nc2N)[n+](CC)c2ccc(C(=O)NCCc3ccc(-c4ccc(CCN(C[C@H](O)[C@@H](O)[C@H](O)[C@H](O)CO)C[C@H](O)[C@@H](O)[C@H](O)[C@H](O)CO)cc4)cc3)cc21 [Example 60]
Input: Given the two records 1 and 2 , choose the one whose concentration at 6 h value is lower. # respond with the chosen item's label
Output: 2
(2: 0.176 µg/mL, 1: 0.26 µg/mL)

----------
# systemTested: ENaC (Homo sapiens, UniProt P37088+P51168+P51170)
# Construct: host or cells: primary human bronchial epithelial cells (HBECs) differentiated at air-liquid interface
# Sequence (P37088 whole entry): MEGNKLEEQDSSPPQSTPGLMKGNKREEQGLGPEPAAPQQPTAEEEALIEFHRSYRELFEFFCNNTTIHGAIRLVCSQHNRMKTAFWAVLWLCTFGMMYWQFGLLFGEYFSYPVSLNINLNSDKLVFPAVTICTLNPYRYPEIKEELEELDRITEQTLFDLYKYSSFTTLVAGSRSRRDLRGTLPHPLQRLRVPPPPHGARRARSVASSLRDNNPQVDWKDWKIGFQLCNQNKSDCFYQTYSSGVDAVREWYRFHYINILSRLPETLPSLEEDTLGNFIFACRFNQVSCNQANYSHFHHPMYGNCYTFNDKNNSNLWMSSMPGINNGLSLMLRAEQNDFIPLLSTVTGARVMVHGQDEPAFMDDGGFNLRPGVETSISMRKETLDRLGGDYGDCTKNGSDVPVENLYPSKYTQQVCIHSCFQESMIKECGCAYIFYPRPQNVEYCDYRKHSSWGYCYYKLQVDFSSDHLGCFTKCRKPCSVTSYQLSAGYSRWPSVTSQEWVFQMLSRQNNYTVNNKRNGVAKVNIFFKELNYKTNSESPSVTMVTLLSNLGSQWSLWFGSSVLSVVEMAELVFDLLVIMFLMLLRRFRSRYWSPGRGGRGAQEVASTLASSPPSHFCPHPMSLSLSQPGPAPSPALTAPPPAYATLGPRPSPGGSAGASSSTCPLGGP
# Sequence (P51168 whole entry): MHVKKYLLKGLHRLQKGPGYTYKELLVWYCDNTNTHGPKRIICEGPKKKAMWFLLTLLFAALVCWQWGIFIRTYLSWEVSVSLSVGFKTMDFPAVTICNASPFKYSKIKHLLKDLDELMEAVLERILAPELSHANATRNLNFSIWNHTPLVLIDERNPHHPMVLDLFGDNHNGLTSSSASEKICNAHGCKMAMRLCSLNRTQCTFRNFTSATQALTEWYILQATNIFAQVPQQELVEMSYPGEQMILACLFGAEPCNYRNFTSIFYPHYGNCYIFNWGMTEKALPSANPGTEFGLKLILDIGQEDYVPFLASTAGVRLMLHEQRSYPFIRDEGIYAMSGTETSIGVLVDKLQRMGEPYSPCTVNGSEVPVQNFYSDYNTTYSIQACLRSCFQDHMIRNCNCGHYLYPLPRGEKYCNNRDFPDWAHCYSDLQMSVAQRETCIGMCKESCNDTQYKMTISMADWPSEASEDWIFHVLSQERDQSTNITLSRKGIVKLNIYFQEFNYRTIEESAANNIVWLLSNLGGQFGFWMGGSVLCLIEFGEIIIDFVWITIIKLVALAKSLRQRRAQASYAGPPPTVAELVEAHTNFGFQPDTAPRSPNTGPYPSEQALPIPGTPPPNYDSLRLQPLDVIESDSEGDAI
# Sequence (P51170 whole entry): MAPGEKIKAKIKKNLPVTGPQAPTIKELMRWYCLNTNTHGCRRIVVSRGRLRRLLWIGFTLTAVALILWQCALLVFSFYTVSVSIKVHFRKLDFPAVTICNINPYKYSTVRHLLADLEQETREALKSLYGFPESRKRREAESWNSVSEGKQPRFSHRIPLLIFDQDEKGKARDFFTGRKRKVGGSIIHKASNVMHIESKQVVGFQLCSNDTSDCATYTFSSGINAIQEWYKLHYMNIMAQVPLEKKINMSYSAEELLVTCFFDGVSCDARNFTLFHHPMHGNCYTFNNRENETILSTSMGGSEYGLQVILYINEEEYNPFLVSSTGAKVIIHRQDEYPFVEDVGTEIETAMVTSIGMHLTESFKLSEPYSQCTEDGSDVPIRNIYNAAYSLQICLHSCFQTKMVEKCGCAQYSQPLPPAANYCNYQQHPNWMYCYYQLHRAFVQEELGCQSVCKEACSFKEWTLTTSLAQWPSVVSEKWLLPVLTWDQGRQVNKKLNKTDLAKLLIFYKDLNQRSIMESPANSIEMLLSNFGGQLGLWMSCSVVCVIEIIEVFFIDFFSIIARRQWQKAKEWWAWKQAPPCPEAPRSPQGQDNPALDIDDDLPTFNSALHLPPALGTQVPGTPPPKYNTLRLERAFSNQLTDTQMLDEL
# assayInfo: Short circuit current assay to determine ENaC blocker potency in human bronchial epithelial cells
# Assay type: cell-based
# conditionSummary: 50% inhibition of total amiloride-sensitive ISC, apical addition, read-out: Averages.ENaC IC50 (nM) Avg
Counter-ions that a name gives are not always drawn.
testReadout: IC50 (nM)

The cases that follow already have their IC50 on record.
{"molecule": "CCn1c(CNC(=O)c2nc3cc[nH]c3nc2N)[n+](C)c2ccc(C(F)(F)F)cc21 [Example 5, formate]", "displayUnit": "nM", "IC50": 9}
{"molecule": "CCn1c(CNC(=O)c2nc3cc[nH]c3nc2N)[n+](C)c2ccc(OC)cc21 [Example 4, formate]", "displayUnit": "nM", "IC50": 8}

(P) CCn1c(CNC(=O)c2nc3cc[nH]c3nc2N)[n+](CC)c2ccc(OCCCN)cc21
(Q) CCn1c(CNC(=O)c2nc3cc[nH]c3nc2N)[n+](CC)c2ccc(C(=O)N[C@H]3CC[C@@H](N(C[C@H](O)[C@@H](O)[C@H](O)[C@H](O)CO)C[C@H](O)[C@@H](O)[C@H](O)[C@H](O)CO)CC3)cc21
(R) CCn1c(CNC(=O)c2nc3cc[nH]c3nc2N)[n+](CC)c2ccc(C(=O)N3CC[C@H](N(C[C@H](O)[C@@H](O)[C@H](O)[C@H](O)CO)C[C@H](O)[C@@H](O)[C@H](O)[C@H](O)CO)C3)cc21
(S) CCn1c(CNC(=O)c2nc3cc[nH]c3nc2N)[n+](CC)c2ccc(OCCNC(=N)N)cc21
Input: I would appreciate it if you could sort these 4 molecules by IC50, starting from the smallest number. List labels; respect the requested ordering.
Output: S, P, Q, R
(S: 3 nM, P: 7 nM, Q: 15 nM, R: 49 nM)

----------
# systemTested: ENaC (Homo sapiens, UniProt P37088+P51168+P51170)
# Construct: host or cells: primary human bronchial epithelial cells (HBECs) differentiated at air-liquid interface
# assayInfo: Short circuit current assay to determine ENaC blocker potency in human bronchial epithelial cells
# Type: cell-based
# conditionSummary: 50% inhibition of total amiloride-sensitive ISC, apical addition, read-out: Averages.ENaC IC50 (nM) Avg
Structures can show the parent of a compound that is named as a salt.
testReadout: IC50 (nM)

{"molecule": "CCn1c(CNC(=O)c2nc3c(Cl)c[nH]c3nc2N)[n+](CC)c2ccc(C(=O)N3CCC(N(C[C@H](O)[C@@H](O)[C@H](O)[C@H](O)CO)C[C@H](O)[C@@H](O)[C@H](O)[C@H](O)CO)CC3)cc21", "IC50 (nM)": 49}
{"molecule": "CCn1c(CNC(=O)c2nc3cc[nH]c3nc2N)[n+](CC)c2ccc(OCCNC(=O)OC(C)(C)C)cc21", "IC50 (nM)": 8}
{"molecule": "CCn1c(CNC(=O)c2nc3cc[nH]c3nc2N)[n+](CC)c2ccc(C(=O)NCCCNC(=O)OC(C)(C)C)cc21", "IC50 (nM)": 5}
{"molecule": "CCn1c(CNC(=O)c2nc3cc[nH]c3nc2N)[n+](C)c2ccc(OC(F)(F)F)cc21 [Example 6, formate]", "IC50 (nM)": 5}
{"molecule": "CCn1c(CNC(=O)c2nc3cc[nH]c3nc2N)[n+](CC)c2ccc(C(=O)N3CC[C@@H](N(C[C@H](O)[C@@H](O)[C@H](O)[C@H](O)CO)C[C@H](O)[C@@H](O)[C@H](O)[C@H](O)CO)C3)cc21", "IC50 (nM)": 202}
{"molecule": "CCn1c(CNC(=O)c2nc3cc[nH]c3nc2N)[n+](CC)c2ccc(C(=O)N[C@H]3CC[C@H](N(C[C@H](O)[C@@H](O)[C@H](O)[C@H](O)CO)C[C@H](O)[C@@H](O)[C@H](O)[C@H](O)CO)CC3)cc21", "IC50 (nM)": 78}
{"molecule": "CCn1c(CNC(=O)c2nc3cc[nH]c3nc2N)[n+](CC)c2ccc(CCCNC(=N)N)cc21", "IC50 (nM)": 3}
{"molecule": "CCn1c(CNC(=O)c2nc3cc[nH]c3nc2N)[n+](CC)c2ccc(CCCNC(=O)OC(C)(C)C)cc21", "IC50 (nM)": 6}
{"molecule": "CCn1c(CNC(=O)c2nc3cc[nH]c3nc2N)[n+](CC)c2ccc(C3CCN(C(=O)OC(C)(C)C)CC3)cc21", "IC50 (nM)": 2}

(a) CCn1c(CNC(=O)c2nc3cc[nH]c3nc2N)[n+](CC)c2ccc(OCCN(C[C@H](O)[C@@H](O)[C@H](O)[C@H](O)CO)C[C@H](O)[C@@H](O)[C@H](O)[C@H](O)CO)cc21
(b) CCn1c(CNC(=O)c2nc3cc[nH]c3nc2N)[n+](CC)c2ccc(-c3cnn(C4CCN(C[C@H](O)[C@@H](O)[C@H](O)[C@H](O)CO)CC4)c3)cc21
Input: Given the two records a and b , choose the one whose IC50 value is lower. # respond with the chosen item's label
Output: b
